Tested on: Mus musculus
method description: Neurotoxicity in ip dosed mouse assessed as minimal motor impairment after 0.5 hrs by rotarod test
Type: toxicity, organism-based
stated conditions: in vivo
Form field: MTC (one value per entry).

{"columns": ["molecule", "tgt", "MTC (mg/kg)"],
 "data": [
  ["O=C(Nc1nc2ccc(Br)cc2s1)c1ccccc1C(=O)c1ccccc1", "Mus musculus", 300],
  ["O=C(Nc1nc2ccc(F)cc2s1)c1ccccc1C(=O)c1ccccc1", "Mus musculus", 300],
  ["O=C(Nc1nc2cc(Cl)c(F)cc2s1)c1ccccc1C(=O)c1ccccc1", "Mus musculus", 300],
  ["O=C1NC(=O)C(c2ccccc2)(c2ccccc2)N1 [PHENYTOIN]", "Mus musculus", 100],
  ["NC(=O)N1c2ccccc2C=Cc2ccccc21 [CARBAMAZEPINE]", "Mus musculus", 100],
  ["O=C(Nc1nc2ccc([N+](=O)[O-])cc2s1)c1ccccc1C(=O)c1ccccc1", "Mus musculus", 300]
]}

###

System: Mus musculus
method description: CNS depressant activity in mouse assessed as immobility time at 100 mg/kg, ip measured 60 mins post dose by porsolt's swimming pool test
Assay type: organism-based
Set-up: dose 100 mg/kg, route intraperitoneal
stated conditions: in vivo, 1 h

{"columns": ["given smiles", "result units", "Time"],
 "data": [
  ["O=C(CCC(=O)c1ccccc1)Nc1nc2ccc(Br)cc2s1", "s", 162],
  ["O=C(Nc1nc2ccc(Cl)cc2s1)c1ccccc1C(=O)c1ccccc1", "s", 157],
  ["O=C(Nc1nc2ccc([N+](=O)[O-])cc2s1)c1ccccc1C(=O)c1ccccc1", "s", 154.3],
  ["Cc1ccc2nc(NC(=O)c3ccccc3C(=O)c3ccccc3)sc2c1", "s", 180],
  ["O=C(Nc1nc2ccc(Br)cc2s1)c1ccccc1C(=O)c1ccccc1", "s", 179.1],
  ["O=C(CCC(=O)c1ccccc1)Nc1nc2ccc(F)cc2s1", "s", 160],
  ["COc1ccc2nc(NC(=O)CCC(=O)c3ccccc3)sc2c1", "s", 135.6],
  ["CC(=O)c1ccc2nc(NC(=O)CCC(=O)c3ccccc3)sc2c1", "s", 168.3],
  ["CC(=O)c1ccc2nc(NC(=O)c3ccccc3C(=O)c3ccccc3)sc2c1", "s", 172.3],
  ["O=C(Nc1nc2cc(Cl)c(F)cc2s1)c1ccccc1C(=O)c1ccccc1", "s", 158.1],
  ["COc1ccc2nc(NC(=O)c3ccccc3C(=O)c3ccccc3)sc2c1", "s", 177]
]}
